Data provenance: the supplement of paper PMC7125110

B1: glmS ribozyme (parent)
chain: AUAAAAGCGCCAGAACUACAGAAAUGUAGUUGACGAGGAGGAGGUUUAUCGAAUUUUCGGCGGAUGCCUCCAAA

Variants of: B1
experiment_summary: KM; higher = weaker cofactor use; RNA array
settings: with glucosamine-6-phosphate
Rule: KM of 2000 µM or more gives MET; anything lower gives NOT MET.

These recorded examples may help you get a feel for the data.
{"mutant_code": "A12U A36U", "classification": "MET"}
{"mutant_code": "U31A G41C", "classification": "NOT MET"}
{"mutant_code": "U30A C67G", "classification": "NOT MET"}
{"mutant_code": "G32U G40U", "classification": "MET"}
{"mutant_code": "G40U C67U", "classification": "NOT MET"}

Quick check, KM >= 2000 µM? U47A A48U
NOT MET

Check if KM >= 2000 µM (inclusive). Item: C16A A48U
NOT MET
